- Substrate: CCCCCCCCCCCCCCCC/C=C\OC[C@@H](O)COP(=O)([O-])OCC[N+](C)(C)C
- test details: released choline by choline oxidase/peroxidase colorimetric assay, Michaelis-Menten fit
- Format: biochemical, Thermocrispum sp. RD004668
- assay conditions: pH 8.0, 50 °C, 1 min, 2 mM CaCl2, substrate micelles
readout type: Km (µM)
Write it as a number; the unit µM goes unstated.

Worked examples, 2 proteins total:
1. LyPls-PLD (lysoplasmalogen-specific phospholipase D) (Thermocrispum sp. RD004668; M71G) (protein, recombinant from pET24/lpls-pld in E. coli BL21(DE3); purified on HisTrap HP) TTRTTDNPWLDARVLNMAHAGGENEAPANTLYAFKRAVKLGANGLELDVQSTKDDQLVVIHNATVDQTTDGTGKVRDLTFEQVHELDAAYNFIPGRHAVPGEPPESYPLRGVRTGEKKPPPGYQPSDFAIPKLADVLEAFPRTPINIEIKGTSDADIPSFLHNAKLLARLLKKTGRTDFIVTSFNDLAVAKFHLLAPDIPIAPGMAGLAAYFLLGVKPMHGTVALQIPVRYQGLEIATPEFIRRAHADGYAVHVWFSGTAPDDEATYNRIIDSCADGLMPAYPALLERILDERGIERPGRPGVDPCG ... 64.8
2. LyPls-PLD (lysoplasmalogen-specific phospholipase D) (Thermocrispum sp. RD004668; W282G) (protein, recombinant from pET24/lpls-pld in E. coli BL21(DE3); purified on HisTrap HP) TTRTTDNPWLDARVLNMAHAGGENEAPANTLYAFKRAVKLGANMLELDVQSTKDDQLVVIHNATVDQTTDGTGKVRDLTFEQVHELDAAYNFIPGRHAVPGEPPESYPLRGVRTGEKKPPPGYQPSDFAIPKLADVLEAFPRTPINIEIKGTSDADIPSFLHNAKLLARLLKKTGRTDFIVTSFNDLAVAKFHLLAPDIPIAPGMAGLAAYFLLGVKPMHGTVALQIPVRYQGLEIATPEFIRRAHADGYAVHVGFSGTAPDDEATYNRIIDSCADGLMPAYPALLERILDERGIERPGRPGVDPCG ... 286

Proceeding to the next protein to report its Km.
Task: Returns the measured Km for the input protein. Input: LyPls-PLD (lysoplasmalogen-specific phospholipase D) (Thermocrispum sp. RD004668; N173A) (protein, recombinant from pET24/lpls-pld in E. coli BL21(DE3); purified on HisTrap HP) TTRTTDNPWLDARVLNMAHAGGENEAPANTLYAFKRAVKLGANMLELDVQSTKDDQLVVIHNATVDQTTDGTGKVRDLTFEQVHELDAAYNFIPGRHAVPGEPPESYPLRGVRTGEKKPPPGYQPSDFAIPKLADVLEAFPRTPIAIEIKGTSDADIPSFLHNAKLLARLLKKTGRTDFIVTSFNDLAVAKFHLLAPDIPIAPGMAGLAAYFLLGVKPMHGTVALQIPVRYQGLEIATPEFIRRAHADGYAVHVWFSGTAPDDEATYNRIIDSCADGLMPAYPALLERILDERGIERPGRPGVDPCG
Output: 200
